Target: adenosine A2B receptor (Homo sapiens (Human))
Assay: Adenosine receptor activity assay (Table 1), A2B activity
Type: biochemical
Settings: read-out: Ave A2B cAMP IC50
parameter: IC50

Which IC50 is listed for C[C@H](Nc1nc(C(=O)N2CC[C@@H](O)C2)c2sccc2n1)c1cccc(F)c1 [Example Z132] ? < 10 nM

Then CO[C@@H](C)CNC(=O)c1nc(N[C@@H](C)c2cccnc2)nc2cc(C)sc12 [Example Z399] ? 10 to 50 nM

Then COc1ccc(Oc2cc(CNC(=O)c3nc(N[C@@H](C)c4cncc(F)c4)nc4ccsc34)ccn2)cc1 [Example Z398] ? 100 to 500 nM

----------
Biological target: adenosine A2B receptor (Homo sapiens (Human))
Assay: Adenosine receptor activity assay (Table 1), A2B activity
Type: biochemical
Conditions: read-out: Ave A2B cAMP IC50
pIC50: −log10 of the molar value.
Each item that follows carries a reported pIC50.

Some solved cases for reference:
{"lineNotation": "O=C(NC1CCC1)c1nc(NCc2cnccn2)nc2ccsc12", "pIC50": "7.00 to 7.30"}
{"lineNotation": "CO[C@@H]1CCN(C(=O)c2nc(N[C@@H](C)c3ccccn3)nc3cc(C)sc23)C1", "pIC50": "> 8.00"}
{"lineNotation": "Cc1cc2nc(N[C@@H](C)c3cccnc3)nc(C(=O)N3CC(CNC(=O)OC(C)(C)C)C3)c2s1", "pIC50": "6.30 to 7.00"}
{"lineNotation": "O=C(c1nc(NCCn2ccnc2)nc2ccsc12)N1CCCC1", "pIC50": "< 6.30"}
{"lineNotation": "O=C(c1nc(NCc2cncc(F)c2)nc2ccsc12)N1CC(F)(F)C1", "pIC50": "7.30 to 8.00"}
{"lineNotation": "CC(C)C(=O)N1CCN(C(=O)c2nc(N[C@@H](C)c3cncc(F)c3)nc3ccsc23)C1", "pIC50": "6.30 to 7.00"}

// next item, pIC50 requested
Lab note: need pIC50 with adenosine A2B receptor (Homo sapiens (Human)) for entry `Cc1cc2nc(N[C@@H](C)c3ccccn3)nc(C(=O)N3CC[C@H](O)C3)c2s1` , please look it up. 7.30 to 8.00

----------
Molecular target: adenosine A2B receptor (Homo sapiens (Human), UniProt P29275)
Sequence (P29275 whole entry): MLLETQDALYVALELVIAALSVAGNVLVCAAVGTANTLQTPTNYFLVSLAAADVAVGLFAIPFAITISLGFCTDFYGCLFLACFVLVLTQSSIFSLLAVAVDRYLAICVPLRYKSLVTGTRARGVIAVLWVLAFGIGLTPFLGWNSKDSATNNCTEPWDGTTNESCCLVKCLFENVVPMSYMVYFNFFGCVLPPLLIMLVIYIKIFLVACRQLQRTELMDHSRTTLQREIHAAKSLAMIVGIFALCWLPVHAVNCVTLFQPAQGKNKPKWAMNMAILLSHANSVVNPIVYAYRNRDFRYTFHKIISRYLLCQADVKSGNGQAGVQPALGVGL
Experiment: Adenosine receptor activity assay (Table 1), A2B activity
Assay type: biochemical
Details: read-out: Ave A2B cAMP IC50
parameter: IC50

Some solved cases for reference:
{"lineNotation": "Cc1cc2nc(N[C@@H](C)c3cncc(F)c3)nc(C(=O)N3CC(CNC(=O)CC(C)(C)C)C3)c2s1", "measurementTarget": "adenosine A2B receptor (Homo sapiens (Human), UniProt P29275)", "IC50": "0.01 to 0.05 µM"}
{"lineNotation": "Cc1cc2nc(N[C@@H](C)c3cccnc3)nc(C(=O)NCC[C@H]3CCNC3)c2s1", "measurementTarget": "adenosine A2B receptor (Homo sapiens (Human), UniProt P29275)", "IC50": "> 0.5 µM"}
{"lineNotation": "Cc1cc2nc(N[C@@H](C)c3ccccn3)nc(C(=O)NCc3nccs3)c2s1", "measurementTarget": "adenosine A2B receptor (Homo sapiens (Human), UniProt P29275)", "IC50": "0.01 to 0.05 µM"}

Which IC50 is listed for `COc1cncc(NC(=O)c2nc(N[C@@H](C)c3ccccn3)nc3ccsc23)c1` ? 0.01 to 0.05 µM

----------
Assay: Hepatocyte intrinsic clearance, rat
Assay type: in vitro ADME
Conditions: hepatocytes
parameter: hepatocyte CLint (µL/min/1e6 cells)

Some solved cases for reference:
{"lineNotation": "C[C@H](Nc1nc(C(=O)N2CC(O)C2)c2sccc2n1)c1cncc(F)c1", "unitAbbreviation": "µL/min/1e6 cells", "hepatocyte CLint": 20.6}
{"lineNotation": "Cc1cc2nc(N[C@@H](C)c3cccnc3)nc(C(=O)N3CCCC3)c2s1", "unitAbbreviation": "µL/min/1e6 cells", "hepatocyte CLint": 25.3}
{"lineNotation": "C[C@H](Nc1nc(C(=O)N2CCCC2)c2sccc2n1)c1cncc(Cl)c1", "unitAbbreviation": "µL/min/1e6 cells", "hepatocyte CLint": 41.1}

[I] C[C@H](Nc1nc(C(=O)N2CC[C@H](O)C2)c2sc(C(F)(F)F)cc2n1)c1cccnc1
[II] CNc1cc2nc(N[C@@H](C)c3cncc(F)c3)nc(C(=O)N3CCC3)c2s1
// select label with min value of measured hepatocyte CLint from [ I , II ] # respond with the chosen item's label I
(I: 25.7 µL/min/1e6 cells, II: 53.2 µL/min/1e6 cells)

----------
Target: adenosine A2B receptor (Homo sapiens (Human))
Test: Adenosine receptor activity assay (Table 1), A2B activity
Type: biochemical
Conditions: read-out: Ave A2B cAMP IC50
Each item that follows carries a reported IC50.

Some solved cases for reference:
{"molecule": "C[C@H](Nc1nc(C(=O)NCCC2CCNC2)c2sccc2n1)c1ccccn1 (stereo partly shown) [Example Z431]", "IC50": "100 to 500 nM"}
{"molecule": "C[C@H](Nc1nc(C(=O)N2CC[C@H](N)C2)c2sccc2n1)c1ccccn1 [Example Z363]", "IC50": "100 to 500 nM"}
{"molecule": "C[C@H](Nc1nc(C(=O)N2CCCC2)c2sccc2n1)c1ccccn1 [Example Z10]", "IC50": "< 10 nM"}

Lab note: need IC50 with adenosine A2B receptor (Homo sapiens (Human)) for entry C[C@H](Nc1nc(C(=O)N2CC[C@H](O)C2)c2sc(C(F)(F)F)cc2n1)c1cncc(F)c1 [Example Z346] , please look it up. < 10 nM

Then C[C@H](Nc1nc(C(=O)NCCO)c2sccc2n1)c1cncc(F)c1 [Example Z275] ? < 10 nM

Then COC[C@@H](Nc1nc(C(=O)N2CCC2)c2sccc2n1)c1cccnc1 [Example Z341] ? < 10 nM

Then Cc1cc2nc(N[C@@H](C)c3cncc(F)c3)nc(C(=O)NCCC3CN(C)C3)c2s1 [Example Z535] ? 10 to 50 nM

Then CC(=O)N[C@@H]1CCN(C(=O)c2nc(N[C@@H](C)c3ccccn3)nc3ccsc23)C1 [Example Z317] ? > 500 nM

Then COC[C@H]1CCN1C(=O)c1nc(N[C@@H](C)c2cncc(F)c2)nc2cc(C)sc12 [Example Z570] ? 10 to 50 nM

Then C[C@H](Nc1nc(C(=O)N2CCC(F)(F)C2)c2sccc2n1)c1ccccn1 [Example Z96] ? 10 to 50 nM

----------
Target: adenosine A2B receptor (Homo sapiens (Human), UniProt P29275)
Test: Adenosine receptor activity assay (Table 1), A2B activity
Format: biochemical
Conditions: read-out: Ave A2B cAMP IC50
pIC50: −log10 of the molar value.
Each item that follows carries a reported pIC50.

Some solved cases for reference:
{"lineNotation": "Cc1cc2nc(N[C@@H](C)c3cncc(F)c3)nc(C(=O)N3CC(NC(=O)C4CCC4)C3)c2s1", "pIC50": "7.30 to 8.00"}
{"lineNotation": "O=C(c1nc(NCc2cccc(F)c2)nc2ccsc12)N1CC[C@@H](O)C1", "pIC50": "7.00 to 7.30"}
{"lineNotation": "C[C@H](O)CNC(=O)c1nc(NCc2cncc(C(F)(F)F)c2)nc2ccsc12", "pIC50": "6.30 to 7.00"}

// next item, pIC50 requested
Which pIC50 is listed for `O=C(c1nc(NCc2cnccn2)nc2ccsc12)N1CCC1` ? 7.00 to 7.30

----------
Molecular target: CYP2D6 (Homo sapiens (Human), UniProt P10635)
Sequence (P10635 whole entry): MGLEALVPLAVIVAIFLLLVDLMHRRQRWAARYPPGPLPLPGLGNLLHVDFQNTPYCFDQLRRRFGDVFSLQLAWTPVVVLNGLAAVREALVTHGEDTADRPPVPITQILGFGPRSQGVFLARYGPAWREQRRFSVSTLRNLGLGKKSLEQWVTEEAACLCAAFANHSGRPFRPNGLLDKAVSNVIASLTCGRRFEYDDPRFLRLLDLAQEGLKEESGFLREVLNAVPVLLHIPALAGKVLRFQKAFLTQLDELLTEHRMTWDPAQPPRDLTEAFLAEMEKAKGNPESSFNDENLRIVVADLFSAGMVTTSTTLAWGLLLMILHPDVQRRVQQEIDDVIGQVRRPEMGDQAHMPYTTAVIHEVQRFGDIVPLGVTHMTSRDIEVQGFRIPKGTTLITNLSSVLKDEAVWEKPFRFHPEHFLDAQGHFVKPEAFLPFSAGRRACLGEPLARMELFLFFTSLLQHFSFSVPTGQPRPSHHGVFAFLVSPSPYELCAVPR
Test: CYP450 inhibition at 10 μM, CYP2D6
Assay type: in vitro ADME
Conditions: read-out: CYP 450 % INH @ 10 μM
parameter: inhibition at 10 µM (%)

Some solved cases for reference:
{"lineNotation": "O=C(c1nc(NCc2cncc(F)c2)nc2ccsc12)N1CCCC1", "unitAbbreviation": "%", "inhibition at 10 µM": 4}
{"lineNotation": "C[C@H](Nc1nc(C(=O)N2CC[C@H](O)C2)c2sccc2n1)c1ccccn1", "unitAbbreviation": "%", "inhibition at 10 µM": 10}
{"lineNotation": "O=C(c1nc(NCc2cncc(F)c2)nc2ccsc12)N1CC[C@@H](F)C1", "unitAbbreviation": "%", "inhibition at 10 µM": 11}

[P] C[C@H](Nc1nc(C(=O)N2CCCC2)c2sccc2n1)c1ccccn1
[Q] C[C@H](Nc1nc(C(=O)N2CC[C@H](F)C2)c2sccc2n1)c1cccnc1
[R] C[C@H](NC(=O)c1nc(N[C@@H](C)c2ccccn2)nc2ccsc12)c1ccccn1
[S] C[C@H]1CCN(C(=O)c2nc(N[C@@H](C)c3cccnc3)nc3ccsc23)C1
[T] COc1ccc(CNC(=O)c2nc(N[C@@H](C)c3ccccn3)nc3ccsc23)cn1
# desc sort on inhibition at 10 µM across 5 compounds Give the order by naming the labels one after another as requested. S, Q, T, P, R
(S: 39%, Q: 20%, T: 13%, P: 8%, R: 3%)

[1] C[C@H](Nc1nc(C(=O)N2CC[C@H](O)C2)c2sccc2n1)c1cccnc1
[2] Cc1cncc(CNc2nc(C(=O)N3CCCC3)c3sccc3n2)c1
// select label with min value of measured inhibition at 10 µM from [ 1 , 2 ] # respond with the chosen item's label 1
(1: 11%, 2: 32%)

Taken from patent US11254686B1.
